# Tested on: Salmonella TA104
# Protocol Details: Salmonella plate-incorporation mutagenicity assay, strain TA104, with S9 mix
# Format: cell-based
# Measurement Context: plate-incorporation, +S9
Property: Mutagenic potency, Revertants/µg ± S.E., TA104

>>> df
                                   compound            result
0  O[C@@H]1c2ccccc2-c2c(ccc3ccsc23)[C@H]1O (racemic) [P[4,3-b]T 6,7-diol]  9.2 ± 1.3 rev/µg
1  O[C@@H]1C=Cc2c(ccc3ccc4ccsc4c23)[C@H]1O (racemic) [P[4,3-b]T 8,9-diol]   577 ± 63 rev/µg
2  O[C@@H]1C=Cc2c(ccc3ccc4sccc4c23)[C@H]1O (racemic) [P[3,4-b]T 8,9-diol]   369 ± 28 rev/µg
3  c1ccc2c(c1)ccc1ccc3sccc3c12 [P[3,4-b]T, Phenanthro[3,4,-b]thiophene]   210 ± 84 rev/µg
